tested on: Malme-3M; test: NCI tumour cell line growth inhibition, 48 h
Active and inactive are the calls of the source. No stated cut-off is given here; in the data, active = GI50 up to about 1.1 µM and inactive = higher.
Reported GI50 values for a set of molecules

Past entries and their recorded results:
1. C[C@]12CCC3C4=C(CCC3C1CCC2=O)C(=O)[C@H]1O[C@H]1C4=O (stereo not given in full) : 21.6 µM (inactive)
2. CCOC(=O)C1=C(C)C2C3C(=O)NC(=O)C3C1(C)C1C(=O)NC(=O)C21 (stereo not given) : > 100 µM (inactive)
3. CN(C)c1ccc(/C=c2\sc3nnc(Cc4ccccc4)n3c2=O)cc1 : > 10 µM (inactive)
4. COc1ccc(/C(=C\c2cc(OC)c(OC)c(OC)c2)C(=O)O)cc1 : 55.3 µM (inactive)

Could you now consider this next molecule?
Consider `COc1c(C)c2c(c3c1c(=O)c1ccccc1n3C)C=CC(C)(C)O2` . Its measured GI50 is 25.8 µM (inactive)

====

test system: EKVX; assay: NCI tumour cell line growth inhibition, 48 h
The source made the active and inactive calls. Cut-off read from the data, not from the text of the source: active = GI50 up to about 1.1 µM and inactive = higher.
Reported GI50 values for a set of compounds

Consider CCOC(=O)C1=C(C)NC(=O)NC1c1coc2cc(C)cc(C)c2c1=O (configuration not stated) . Its measured GI50 is 31.6 µM (inactive)

Consider `CC(C)=Nn1cnc2c1=NC(C)(C)NC=2C(N)=O` . Its measured GI50 is > 10 µM (inactive)

Consider `CC(=O)Oc1ccc2cc(Oc3cc(Cl)c(Cl)cc3Cl)c(=O)oc2c1` . Its measured GI50 is 24.4 µM (inactive)

Consider `Cc1cc(C)n(CC(Cn2nc(C)cc2C)=C(/C(Cl)=C(/Cl)Nc2ccc([N+](=O)[O-])cc2)[N+](=O)[O-])n1` . Its measured GI50 is 3.85 µM (inactive)

Consider `COc1cc(C(=O)Nc2c3ccccc3nc3ccccc23)cc(OC)c1OC` . Its measured GI50 is > 59 µM (inactive)

Consider O=CNC(Cc1c[nH]cn1)C(=O)O (configuration not stated) . Its measured GI50 is > 100 µM (inactive)

Consider `c1ccc(C(c2ccccc2)c2cccnc2)cc1` . Its measured GI50 is 99.5 µM (inactive)

Consider Cc1cc2nc(O)c(C(C)C(=O)c3ccc(Cl)cc3)nc2cc1C (configuration not stated) . Its measured GI50 is 14.2 µM (inactive)

====

test system: SK-MEL-28; assay: NCI tumour cell line growth inhibition, 48 h
Active and inactive are the calls of the source. Rule as the data show it: active = GI50 up to about 1.1 µM and inactive = higher.
Reported GI50 values for a set of compounds

Past entries and their recorded results:
1) COc1ccc(/C=N/n2cnc3c(sc(=S)n3-c3ccccc3)c2=O)cc1 : 13.2 µM (inactive)
2) O=c1oc2ccc(Cl)cc2c2ccccc12 : > 100 µM (inactive)
3) CCCCCCCCCCCCN(CC(O)C(O)C(OC1OC(CO)C(O)C(O)C1O)C(O)CO)C(=O)CCCCCCCCCCC (centres undefined) : 17.5 µM (inactive)

Consider `Cn1cc(NC(=O)Nc2cc(C(=O)Nc3cc(C(=O)Nc4cc(S(=O)(=O)O)c5cc(S(=O)(=O)O)cc(S(=O)(=O)O)c5c4)n(C)c3)n(C)c2)cc1C(=O)Nc1cc(C(=O)Nc2cc(S(=O)(=O)O)c3cc(S(=O)(=O)O)cc(S(=O)(=O)O)c3c2)n(C)c1` . Its measured GI50 is > 100 µM (inactive)
